Listed here: items and their measured yeast fitness.
B1: tRNA (parent)
chain: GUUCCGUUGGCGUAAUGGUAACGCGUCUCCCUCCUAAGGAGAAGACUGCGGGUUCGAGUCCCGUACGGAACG

variants of: B1; experiment: yeast fitness relative to wild type (ratio to wild type); higher = fitter; tRNA-Arg(CCU), competitive growth, 37 C, YPD
This sample holds only a part of the variants without activity.
Please respond with just the number, no unit label.

G9A C34A    0.704

// below: yeast fitness requested for another variant
Q) Give reported yeast fitness value for U7G G58A
A) 0.942
